# Test: Volume of distribution at steady state in CD-1 mouse at 2 mg/kg, iv or 10 mg/kg, po
# Format: ADME, organism-based
# Assay context: in vivo, read-out: Vdss
Parameter: Vd (L/kg)
Answer format: numeric, L/kg implied, no suffix.

Value lookup for Vd; key = `CCOc1cc2ncc(-c3cc(N)nc(F)c3)n2cc1S(=O)(=O)C(C)C`
1.1

----------
# Test: Oral bioavailability in CD-1 mouse at 10 mg/kg
# Assay type: ADME, organism-based
# Assay context: in vivo
Parameter: bioavailability
Answer with the number, then the unit.

// query bioavailability value for entry `CCOc1cc2ncc(-c3cc(N)nc(F)c3)n2cc1S(=O)(=O)C(C)C`
47.1%

----------
# Test: Half life in Beagle dog at 0.5 mg/kg, iv or 2 mg/kg, po
# Assay type: ADME, organism-based, Canis lupus familiaris
# Assay context: in vivo
Parameter: half-life
Respond with a number, then the unit of measure.

Consider the compound `CCOc1cc2ncc(-c3cc(N)nc(F)c3)n2cc1S(=O)(=O)C(C)C` and give its measured half-life.
5 h

----------
# Test: AUC in Beagle dog at 0.5 mg/kg, iv
# Format: ADME, organism-based, Canis lupus familiaris
# Assay context: in vivo
Parameter: AUC (µM·h)
Supply the numeric figure in µM·h, leaving out any unit text.

Consider the compound shown here: `CCOc1cc2ncc(-c3cc(N)nc(F)c3)n2cc1S(=O)(=O)C(C)C` What is its recorded AUC?
2.84

----------
# Test: Clearance in Wistar rat at 5 mg/kg, iv or 20 mg/kg, po
# Assay type: ADME, organism-based
# Assay context: in vivo
Parameter: clearance

For `CCOc1cc2ncc(-c3cc(N)nc(F)c3)n2cc1S(=O)(=O)C(C)C` , what is its reported clearance?
12.6 mL/min/kg

----------
# Test: Clearance in CD-1 mouse at 2 mg/kg, iv or 10 mg/kg, po
# Assay type: ADME, organism-based
# Assay context: in vivo
Parameter: clearance

Fill blank: measured clearance of the compound `CCOc1cc2ncc(-c3cc(N)nc(F)c3)n2cc1S(=O)(=O)C(C)C` is ____.
26 to 26.1 mL/min/kg

----------
# Test: Clearance in CD-1 mouse
# Assay type: ADME, organism-based
# Assay context: in vivo
Parameter: clearance (mL/min/kg)
Value expressed in mL/min/kg; do not type the unit.

Guide cases for clearance, answers given:
structure_smiles_string=CC(C)Oc1cc2ncc(-c3cc(N)nc(Cl)c3)n2cc1S(=O)(=O)C(C)(C)C parameter=clearance unit=mL/min/kg recorded_number=42
structure_smiles_string=CCOc1cc2ncc(-c3cc(N)nc(F)c3)n2cc1S(=O)(=O)C(C)(C)C parameter=clearance unit=mL/min/kg recorded_number=18
structure_smiles_string=COCCOc1cc2ncc(-c3cc(N)nc(Cl)c3)n2cc1S(=O)(=O)C(C)(C)C parameter=clearance unit=mL/min/kg recorded_number=45
structure_smiles_string=CN1CCN(CCOc2cc3ncc(-c4cc(N)nc(Cl)c4)n3cc2S(=O)(=O)C(C)(C)C)CC1 parameter=clearance unit=mL/min/kg recorded_number=109

Form field: reported clearance of `COc1cc2ncc(-c3cc(N)nc(Cl)c3)n2cc1S(=O)(=O)C(C)(C)C`
52

Give the measured clearance of `CC(C)(C)S(=O)(=O)c1cn2c(-c3cc(N)nc(Cl)c3)cnc2cc1OCC(F)(F)F` .
41

For `CCOc1cc2ncc(-c3cc(N)nc(Cl)c3)n2cc1S(=O)(=O)C(C)(C)C` , what is its reported clearance?
42
